assay: Metabolic stability in mouse liver microsomes assessed as intrinsic clearance at 1 uM preincubated for 10 mins followed by NADPH measured for 60 mins by LC-MS/MS analysis; type: ADME, Microsome; settings: time 70 min, read-out: CLH

SMILES_STRING: COc1cc(N2CCN(C)CC2)ccc1Nc1nc(Nc2ccccc2S(=O)(=O)C(C)C)c2nc[nH]c2n1
UNIT_TAG: mL/min/kg
CLint scaled at 1 µM: 120

###

assay: Metabolic stability in mouse liver microsomes assessed as intrinsic clearance at 1 uM preincubated for 10 mins followed by NADPH measured for 60 mins by LC-MS/MS analysis; assay type: ADME, Microsome; conditions: time 70 min, read-out: CLH
ASSAY_ENDPOINT: microsomal CLint at 1 µM (µL/min/mg)

SMILES_STRING: COc1cc(N2CCN(C)CC2)ccc1Nc1nc(Nc2ccccc2S(=O)(=O)C(C)C)c2nc[nH]c2n1
DATA_VALUE: 30.2

###

The reader will find reported IC50 values listed item by item below.
target: Serine/threonine-protein kinase DCLK1 (Homo sapiens, UniProt O15075); test: Inhibition of DCLK1 (unknown origin) preincubated for 10 mins followed by substrate/ATP addition measured after 60 mins by mobility shift assay
Sequence (O15075 whole entry): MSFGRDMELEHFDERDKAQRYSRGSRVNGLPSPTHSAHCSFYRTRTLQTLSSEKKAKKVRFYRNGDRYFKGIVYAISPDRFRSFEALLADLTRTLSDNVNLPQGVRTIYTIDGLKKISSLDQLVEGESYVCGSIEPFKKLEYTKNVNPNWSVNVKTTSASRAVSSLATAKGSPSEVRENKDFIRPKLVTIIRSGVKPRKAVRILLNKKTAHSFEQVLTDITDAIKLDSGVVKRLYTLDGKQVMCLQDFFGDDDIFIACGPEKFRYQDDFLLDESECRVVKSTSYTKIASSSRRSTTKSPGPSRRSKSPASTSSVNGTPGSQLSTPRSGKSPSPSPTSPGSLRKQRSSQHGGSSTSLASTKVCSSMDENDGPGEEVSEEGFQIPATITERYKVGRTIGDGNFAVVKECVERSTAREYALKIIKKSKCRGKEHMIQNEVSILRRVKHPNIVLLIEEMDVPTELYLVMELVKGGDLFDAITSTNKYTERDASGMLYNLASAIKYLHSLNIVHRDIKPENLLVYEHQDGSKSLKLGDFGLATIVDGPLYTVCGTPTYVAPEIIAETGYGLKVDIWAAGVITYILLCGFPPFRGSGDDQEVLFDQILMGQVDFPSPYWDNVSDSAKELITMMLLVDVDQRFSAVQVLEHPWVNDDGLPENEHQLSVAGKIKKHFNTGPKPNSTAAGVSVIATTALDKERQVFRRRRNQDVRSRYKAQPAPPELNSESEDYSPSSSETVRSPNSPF

SMILES_STRING: COc1cc(N2CCN(C)CC2)ccc1Nc1ncc2c(n1)N(C)c1ccccc1C(=O)N2CC(F)(F)F
TEST_TARGET: Serine/threonine-protein kinase DCLK1 (Homo sapiens, UniProt O15075)
IC50, nM: 37.9
//
SMILES_STRING: COc1ccccc1Nc1nc(Nc2ccccc2S(=O)(=O)C(C)C)c2nc[nH]c2n1
TEST_TARGET: Serine/threonine-protein kinase DCLK1 (Homo sapiens, UniProt O15075)
IC50, nM: 171
